Test system: SNB-75 CNS
Test: NCI tumour cell line growth inhibition, 48 h
quantityName: TGI (µM)
Numeric answer only, unit µM assumed.

Past entries and their recorded results:
>>> valueobserved("COc1cc(CSc2nc3ccc(C)cc3c(=O)n2-c2ccccc2)cc(OC)c1OC")
2.98
>>> valueobserved("Cc1nn2c(/C=C3\\C(=O)Nc4ccc(Cl)cc43)c(C)nc2s1")
92.2
>>> valueobserved("CCOC(=O)c1cnc2oc3ccc(O)cc3c2c1C")
82.9

*Q* Could you share which TGI value was measured for Cc1ccc(S(=O)(=O)N/N=C/c2c(O)ccc3ccccc23)cc1 ?
*A* 74.3

*Q* Could you share which TGI value was measured for COC(=O)C1(C(=O)OC)Cc2ccc(OC)cc2C2=C1C(=O)c1ccccc1C2=O ?
*A* 35.8

*Q* Could you share which TGI value was measured for COc1ccc2c(c1)c(=O)oc1cc(OC/C(C)=N\O)ccc12 ?
*A* 42.9

*Q* Could you share which TGI value was measured for C=CCNC1=C2C[C@@H](C)C[C@@H](OC)[C@H](OC(=O)CCN)[C@H](C)/C=C(\C)[C@@H](OC(N)=O)[C@H](OC)/C=C\C=C(/C)C(=O)NC(=CC1=O)C2=O ?
*A* 9.63

*Q* Could you share which TGI value was measured for Nc1ncnn2c(C3OC(CO)C(O)C3O)ccc12 (stereo not given) ?
*A* 0.866

*Q* Could you share which TGI value was measured for CN(CCCn1c2c(c3ccccc3c1=O)C(=O)c1ccccc1-2)CCCn1c2c(c3ccccc3c1=O)C(=O)c1ccccc1-2 ?
*A* 5.21

*Q* Could you share which TGI value was measured for O=C(Nc1ccc(Cl)cc1)c1cc2cc(N=Nc3ccccc3Cl)ccc2oc1=O ?
*A* 72.5

Numbers sourced from PubChem BioAssay (NCI).
